- assay.target: hGLP-1R (Homo sapiens, UniProt P43220)
- Sequence (P43220 24-463): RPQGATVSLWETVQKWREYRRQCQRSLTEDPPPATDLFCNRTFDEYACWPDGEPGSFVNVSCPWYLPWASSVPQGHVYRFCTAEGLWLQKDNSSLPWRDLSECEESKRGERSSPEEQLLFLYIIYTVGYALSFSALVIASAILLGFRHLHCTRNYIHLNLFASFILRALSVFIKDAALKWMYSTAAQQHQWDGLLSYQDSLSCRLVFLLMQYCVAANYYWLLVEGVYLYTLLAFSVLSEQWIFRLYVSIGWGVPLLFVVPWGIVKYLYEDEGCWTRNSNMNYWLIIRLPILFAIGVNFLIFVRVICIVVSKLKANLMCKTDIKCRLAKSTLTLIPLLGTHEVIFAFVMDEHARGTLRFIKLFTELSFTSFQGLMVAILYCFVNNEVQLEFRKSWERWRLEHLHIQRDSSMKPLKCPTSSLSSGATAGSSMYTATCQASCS
- experiment.summary: cell-based or functional assay
Non-standard residues stand in square brackets, D forms with d. No end group written: not given here. αMePhe(2-F) = C[C@](N)(Cc1ccccc1F)C(=O)O; Aib = CC(C)(N)C(=O)O
quantity.kind: log10 cAMP Rel EC50 (1% HSA) (log10 of the value in nM)
Values are log10 of cAMP Rel EC50 (1% HSA) in nM.

binder	data.value
YXQGTFTSDXSQXLDKKAQXAFIEXLIEXGPSSGEPPPSGE (Aib, 4Pal, αMeL, Me4Pal; acylated Lys; C-terminal amide; synthetic construct; SITE 2: note = 2-Aminoisobutyric Acid; SITE 10: note = 3-(4-Pyridyl)-L-alanine; SITE 13: note = alpha-methyl-leucine; SITE 17: note = Lysine is chemically modified through conjugation of the epsilon-amino group of the Lysine side chain with (gamma-Glu)2-CO-(CH2)16-CO2H; SITE 20:) [Example 1123]	2.28

I have this binder here, YXQGTFTSDXSKXLDKKAQXAFIEYLIEXGPSSGAPPPSGSEE (non-natural residues; C18 diacid-(γGlu)2 on Lys; C-terminal amide; synthetic construct; SITE 2: note = 2-Aminoisobutyric Acid; SITE 10: note = 3-(4-Pyridyl)-L-alanine; SITE 13: note = alpha-methyl-leucine; SITE 17: note = Lysine is chemically modified through conjugation of the epsilon-amino group of the Lysine side chain with (gamma-Glu)2-CO-(CH2)16-CO2H; SITE 20:) [Example 905] , and I need its recorded log10 cAMP Rel EC50 (1% HSA).
2.33

Request: Y[Aib]QGT[αMePhe(2-F)]TSDYSKLLDKIAQKAFIEYLIEGGPSSGEPPPSEG-NH2 (not fully specified (residue 20)) [Example 330]
1.96

Request: YXQGTFTSDXSQXLDXKAQXAFIEXLIEGGPSSGAPPPSGSEE (Aib, 4Pal, αMeL, Orn, Me4Pal, αMeY; acylated Lys; C-terminal amide; synthetic construct; SITE 2: note = 2-Aminoisobutyric Acid; SITE 10: note = 3-(4-Pyridyl)-L-alanine; SITE 13: note = alpha-methyl-leucine; SITE 16: note = L-ornithine; SITE 17: note = Lysine is chemically modified through conjugation of the epsilon-amino group of the Lysine side chain with D-Glutami) [Example 1070]
2.51

Request: YXQGTXTSDXXIXLDXQAQXEFIEXLIEGGPSSGAPPPSGGGE (not fully specified; synthetic construct; SITE 2: note = 2-Aminoisobutyric Acid; SITE 6: note = alpha-methyl-2-fluoro-L-phenylalanine; SITE 10: note = 3-(4-Pyridyl)-L-alanine; SITE 11: note = alpha-methyl-L-serine; SITE 13: note = alpha-methyl-leucine; SITE 16: note = L-ornithine; SITE 20: note = 3-(4-Pyridyl)-L-alanine) [Example 1234]
0.06

Request: YXQGTFTSDXSKXLDKKAQXAFIEYLIEXGPSSGAPPPSGSEEE (Aib, 4Pal, αMeL, AEEA-γGlu-C18 diacid on Lys, amide; synthetic construct; SITE 2: note = 2-Aminoisobutyric Acid; SITE 10: note = 3-(4-Pyridyl)-L-alanine; SITE 13: note = alpha-methyl-leucine; SITE 17: note = Lysine is chemically modified through conjugation of the epsilon-amino group of the Lysine side chain with (2-[2-(2-Amino-ethoxy)-ethoxy]-acetyl)) [Example 903]
2.59
